assay: soluble on expression in E. coli; label from the status in PepcDB or PDB records
REPORTED PROPERTY: soluble on expression in E. coli

**Q:** Query: soluble on expression in E. coli; subject: `MAVAALKALLPPERLRRLTPLGGFEARVYTDGERVYKVYRKEEAHLAGLEARRMARAGFGSLVLAVIQGAEGGVLVTRRFPGRPFAPEAFTSKTLAALSHLFLALHRLPEPGKVTQEELLSRLERFAESLHDQPEALSLVQALKREVGLAAGVERRFCHRDAWAGNLLLKAPEAEGPEVFLVDWARAGGDDPARDLALLKTGSLDLLGEEAARAALFRMARLYPKEVRERLAFYVPLTYLHDLHWFRTKEPQGFPQALEEKLPKALAFFRDFFPRRGAW`
**A:** soluble

**Q:** Next entry: `MSLNSLKHPKVRDTRDMWDIREELTSEQKKQEKLLAEINKYDKFVNSYSQTKEMTKETALNNTLQSLKKTAGMTDITGSGIVITISPLFSESLTGEPIENPPPDLLKKLINELNSYGAEHISINERRVVNHTVIRDINGTTKIDGYALDDYPLTVKVLAKDPDMLHSRVKGSGLEDLFASENLALKAGKSESKLTLKAYDRPLDVQQLKLLKDEGHHHHHH`
**A:** soluble

----------
test: soluble on expression in E. coli; label from the status in PepcDB or PDB records
REPORTED PROPERTY: soluble on expression in E. coli

**Q:** Query: soluble on expression in E. coli; subject: `MGSDKIHHHHHHMMQLLVTGATGFVGKTLCSALRRQSFPVKAIGRAGTIRADALGDQVASIDGQTDWSLILDGINAVIHLAARVHVMREQLADPLAAYRETNVEGTLNLARQAAKAGVKRFVFISSIKVNGEQTLPGKPFTAYDVPAPEDAYGISKFEAEQGLLALARETGMDVVVIRPPLVYGPGVKGNFASMMKLVKSGIPLPLGAIHNQRSLVAIDNLVNLIVTCIDHPAAANQVFLVSDGEDLSTSDLLRRLAKAAGVSSRLMPVSARWLEMGLRMCGKRLIAQRLLGSLQVDISKTRELLGWVPPISVDEGLKRCFSTKG`
**A:** not soluble

**Q:** Next entry: `MGSDKIHHHHHHMINLKELKILHTSDWHLGVTSWTSSRPVDRREELKKALDKVVEEAEKREVDLILLTGDLLHSRNNPSVVALHDLLDYLKRMMRTAPVVVLPGNHDWKGLKLFGNFVTSISSDITFVMSFEPVDVEAKRGQKVRILPFPYPDESEALRKNEGDFRFFLESRLNKLYEEALKKEDFAIFMGHFTVEGLAGYAGIEQGREIIINRALIPSVVDYAALGHIHSFREIQKQPLTIYPGSLIRIDFGEEADEKGAVFVELKRGEPPRYERIDASPLPLKTLYYKKIDTSALKSIRDFCRNFPGYVRVVYEEDSGILPDLMGEIDNLVKIERKSRREIEEVLRESPEEFKEELDKLDYFELFKEYLKKREENHEKLLKILDELLDEVKKSEA`
**A:** not soluble

----------
test: soluble on expression in E. coli; label from the status in PepcDB or PDB records
REPORTED PROPERTY: soluble on expression in E. coli

**Q:** Query: soluble on expression in E. coli; subject: `MNERERVLAIKGGDHQAFIDLYNEYWSQVYDFSRLYIATIADAEEIVQDVFVKLWESRHLLKEDENIKGFLFIVTRNIVFNKNKKRVNENLFKTSVLVAYGNEGYYNSTTVEEDYCASQLKIFIDRLINSLPEQQRKCFLLSREESLSYKEIAERLGISQKTVEIHMGKALKFLKDKVKRGWEILLSLLSF`
**A:** not soluble

**Q:** Next entry: `MGSDKIHHHHHHMTNVIIEKISAKEVFKGAKIKVMITTMTNISIGYDIIEVNNPEEAIADVENVIAPELIGYPATDIDFIDSLICETSVNNPTVAMGISISVARAASNSLDIPLFKFLGGALTTELPIVASGILVDKDKNELIPIVMADSIEDIVNLYLKLTDVLSHDYSIVNIDGAYTCKDIFNEIPKIRNLIDEIKEDEDLDILLGLSSKKETVKDKDLSQIDYLEVEEPVEFDGFLCTDSIYEESDFVKVFPYEMGTITEMYYYINYIMDKGLYPVIFGNNSSFAHIAVSFKVPFLRPKLSSNVLNEVWNIERTIMNPNIRRF`
**A:** not soluble
